# credit: a melting point compilation (Tetko et al.; mined from patent text by program, amines drawn as free bases though some values may be those of a salt)

property: melting point

{"compound": "CCOC(=O)CCCSc1nccc(NC(=S)NCC(F)(F)F)n1", "melting point": "104 to 106 °C"}
{"compound": "CN(C)C(=O)N=NC(=O)N(C)C", "melting point": "121 to 122 °C"}
{"compound": "COC(=O)CCc1cc2nc(C(F)(F)F)ccc2n1S(=O)(=O)c1ccccc1", "melting point": "119 °C"}
{"compound": "CCCc1nc2c(N)ncc(Br)c2n1CCOCCNS(C)(=O)=O", "melting point": "129 to 131 °C"}
{"compound": "CC1=C(O)C(=O)C(C)(C(O)Cc2ccccc2)O1 (stereo not drawn)", "melting point": "158 to 159 °C"}

For `CC1(C)NC(=O)CN1C(=O)CCl` , write its melting point.
151 to 153 °C

Please report the measured melting point for `CN1c2cc(Cl)ccc2-c2nc3ccc(Cl)cc3c3cccc1c23`
273 to 275 °C

Name the recorded melting point of the compound listed here: COC(=O)Cc1ccc(OCC(C)NCC(O)c2cccc(F)c2)cc1 (stereo not drawn)
52 °C

Please look at this compound and report its melting point: `CC(C)(C)OC(=O)c1ncn2c1[C@@H]1CCCN1C(=O)c1c-2ccc(F)c1Cl`
211 to 212 °C

In one line, give reported melting point of the entry `CCCN(C=Cc1ccc([N+](=O)[O-])c2[nH]ncc12)CCC` .
166 to 167 °C
